- systemName: S1-Fc (SARS-CoV-2, UniProt P0DTC2 16-685)
- procedureText: phage ELISA
measurementKind: specificity ELISA, percent binding relative to Acro S1

binder: SARS-CoV-2 variant 1-32 (antibody, V domains shown) VH: EVQLLESGGGLVQPGGSLRLSCAASGFTFSSYAMYWVRQAPGKGLEWVSAISGSGGSTFYADSVKGRFTISRDNSKNTLYLQMNSLRAEDTAVYYCTRPPYGDYGDYWGQGTLVTVSS VL: QSALTQPASVSGSPGQSITISCTGTSSDVGGYNLVSWYQQHPGKAPKLMIYEGNKRPSGVSNRFSGSKSGNTASLTISGLQAEDEADYYCCSYAGSSTFPVVFGGGTKLTVL
measuredValue: 35.3%
--
binder: SARS-CoV-2 variant 1-38 (antibody, V domains shown) VH: EVQLLESGGGLVQPGGSLRLSCAASGITFSSYAMSWVRQAPGKGLEWVSGISGSGGSTYYADSVKGRFTISRDNSKNTLYLQMNSLRAEDTAVYYCAKHGSGTIFGVVIAKYYFDYWGQGTLVTVSS VL: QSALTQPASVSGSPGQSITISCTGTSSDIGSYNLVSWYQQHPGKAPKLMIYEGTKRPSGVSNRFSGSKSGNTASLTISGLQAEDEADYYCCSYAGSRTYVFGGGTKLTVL
measuredValue: 82.8%
--
binder: SARS-CoV-2 variant 1-31 (antibody, V domains shown) VH: EVQLLESGGGLVQPGGSLRLSCAASGFTFSSYAMNWVRQAPGKGLEWVSAISGSGGSTFYADSVKGRFTISRDNSKNTLYLQMNSLRAEDTAVYYCTRPPYGDYGDYWGQGTLVTVSS VL: QSALTQPASVSGSPGQSITISCTGTSSDVGKYNLVSWYQQHPGKAPKLMIYEGSQRPSGVSNRFSGSKSGNTASLTISGLQAEDEADYYCCSYAGSRTPVVFGGGTKLTVL
measuredValue: 51.6%
--
binder: SARS-CoV-2 variant 1-23 (antibody, V domains shown) VH: EVQLLESGGGLVQPGGSLRLSCAASGFTFSSYAISWVRQAPGKGLEWVSIISGSGGSTYYADSVKGRFTISRDNSKNTLYLQMNSLRAEDTAVYYCAREGYRDYLWYFDLWGQGTLVTVSS VL: QSALTQPASVSGSPGQSITISCTGTSNDVGSYNLVSWYQQHPGKAPKLMIYEGNKRPSGVSNRFSGSKSGNTASLTISGLQAEDEADYYCCSYAGSYTVFGGGTKLTVL
measuredValue: 31.1%
--
binder: SARS-CoV-2 variant 1-26 (antibody, V domains shown) VH: EVQLLESGGGLVQPGGSLRLSCAASGFTFSSYAISWVRQAPGKGLEWVSAISGSGYSTYYADSVKGRFTISRDNSKNTLYLQMNSLRAEDTAVYYCARGAPDSSGYYFQGEVYFDYWGQGTLVTVSS VL: QSALTQPASVSGSPGQSITISCTGTSSDVGGYNLVSWYQQHPGKAPKLMIYEGTKRPSGVSNRFSGSKSGNTASLTISGLQAEDEADYYCCSFVRSSAHVVFGGGTKLTVL
measuredValue: 98%
--
binder: SARS-CoV-2 variant 1-3 (antibody, V domains shown) VH: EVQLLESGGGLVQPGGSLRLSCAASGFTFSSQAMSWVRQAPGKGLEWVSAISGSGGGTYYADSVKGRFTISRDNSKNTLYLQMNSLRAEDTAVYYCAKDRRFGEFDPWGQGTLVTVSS VL: QSALTQPASVSGSPGQSITISCTGISSDVGSYNLVSWYQQHPGKAPKLMIYEGTKRPSGVSNRFSGSKSGNTASLTISGLQAEDEADYYCCSYAGSSSFVVFGGGTKLTVL
measuredValue: 91.2%
--
binder: SARS-CoV-2 variant 1-30 (antibody, V domains shown) VH: EVQLLESGGGLVQPGGSLRLSCAASGFTFSSYAMTWVRQAPGKGLEWVSAISGSGGSTFYADSVKGRFTISRDNSKNTLYLQMNSLRAEDTAVYYCTRPPYGDYGDYWGQGTLVTVSS VL: QSALTQPASVSGSPGQSITISCTGTSRDVGSYNLVSWYQQHPGKAPKLMIYEGTKRPSGVSNRFSGSKSGNTASLTISGLQAEDEADYYCCSYAGSRTPVVFGGGTKLTVL
measuredValue: 33.3%
